- protocolConditions: 298.15 K; 101.33 kPa; Liquid; Falling or rolling sphere viscometry
So basically, if viscosity comes in under 4 mPa·s it's class 1, and if it's 4 mPa·s or more it's class 0.

Prompt: Say whether its viscosity is strictly beneath 4 mPa·s. Entry: CCC(=O)[O-].C[NH+]1CCCC1=O [N-methyl-2-oxopyrrolidinium propionate]
Completion: class 1

Prompt: Find out if reported viscosity for CCCCCC(=O)[O-].C[NH+]1CCCC1=O [N-methyl-2-oxopyrrolidinium hexanoate] is less than 4 mPa·s
Completion: class 0

Prompt: # TODO verify viscosity < 4 mPa·s strictly for this compound: CCCC(=O)[O-].C[NH+]1CCCC1=O [N-methyl-2-oxopyrrolidinium butanoate]
Completion: class 1

Prompt: Here's an entry: C[NH+]1CCCC1=O.O=C[O-] [N-methyl-2-oxopyrrolidinium formate] . Is its viscosity below 4 mPa·s?
Completion: class 1

Prompt: Is viscosity strictly under 4 mPa·s for the entry CC(=O)[O-].C[NH+]1CCCC1=O [N-methyl-2-oxopyrrolidinium acetate] ?
Completion: class 1

----------
- protocolConditions: 323.15 K; 101.33 kPa; Liquid; Sing-around technique in a fixed-path interferometer
Kindly state speed of sound for each of the entries shown.
Write the value in m/s as a bare number.

Prompt: Complete the entry with speed of sound for CCCCCC(=O)[O-].C[NH+]1CCCC1=O [N-methyl-2-oxopyrrolidinium hexanoate]
Completion: 1327.6

Prompt: Output measured speed of sound for this item: CC(=O)[O-].C[NH+]1CCCC1=O [N-methyl-2-oxopyrrolidinium acetate]
Completion: 1382.6

Prompt: Annotate the compound CCCC(=O)[O-].C[NH+]1CCCC1=O [N-methyl-2-oxopyrrolidinium butanoate] with its measured speed of sound.
Completion: 1328.5

Prompt: Consider the compound CCCCC(=O)[O-].C[NH+]1CCCC1=O [N-methyl-2-oxopyrrolidinium pentanoate] and give its recorded speed of sound.
Completion: 1323

Prompt: Entry C[NH+]1CCCC1=O.O=C[O-] [N-methyl-2-oxopyrrolidinium formate] needs its speed of sound filled in; supply it.
Completion: 1389.7

Prompt: # return recorded speed of sound for input CCC(=O)[O-].C[NH+]1CCCC1=O [N-methyl-2-oxopyrrolidinium propionate]
Completion: 1352.8

----------
- protocolConditions: 313.15 K; 101.33 kPa; Liquid; Falling or rolling sphere viscometry
# binarize viscosity: threshold 2 mPa·s inclusive, high side 1.0, low side 0.0

Prompt: In plain terms: is recorded viscosity at least 2 mPa·s for CCC(=O)[O-].C[NH+]1CCCC1=O [N-methyl-2-oxopyrrolidinium propionate] ?
Completion: 1.0

Prompt: Check if viscosity >= 2 mPa·s (inclusive). Item: CCCCCC(=O)[O-].C[NH+]1CCCC1=O [N-methyl-2-oxopyrrolidinium hexanoate]
Completion: 1.0

Prompt: Tell me whether viscosity is at least 2 mPa·s here: CCCCC(=O)[O-].C[NH+]1CCCC1=O [N-methyl-2-oxopyrrolidinium pentanoate]
Completion: 1.0

Prompt: Textbook exercise: given the entry CCCC(=O)[O-].C[NH+]1CCCC1=O [N-methyl-2-oxopyrrolidinium butanoate] , state whether its viscosity is greater than or equal to 2 mPa·s.
Completion: 1.0

Prompt: Say whether C[NH+]1CCCC1=O.O=C[O-] [N-methyl-2-oxopyrrolidinium formate] shows viscosity of 2 mPa·s or more.
Completion: 0.0

----------
Assign mass density to each entry below.
- protocolConditions: 328.15 K; 101.33 kPa; Liquid; Vibrating tube method
Kindly provide the numeric value in kg/m3 only, without the unit symbol.

Prompt: Identify measured mass density associated with CCC(=O)[O-].C[NH+]1CCCC1=O [N-methyl-2-oxopyrrolidinium propionate]
Completion: 1000.36

Prompt: Provide one value: measured mass density of CC(=O)[O-].C[NH+]1CCCC1=O [N-methyl-2-oxopyrrolidinium acetate]
Completion: 1018.12

Prompt: Hello, please tell me recorded mass density for this one: CCCC(=O)[O-].C[NH+]1CCCC1=O [N-methyl-2-oxopyrrolidinium butanoate]
Completion: 979.25

Prompt: Quote mass density reported for C[NH+]1CCCC1=O.O=C[O-] [N-methyl-2-oxopyrrolidinium formate] please.
Completion: 1043.2

Prompt: Indicate the recorded mass density value for this molecule: CCCCC(=O)[O-].C[NH+]1CCCC1=O [N-methyl-2-oxopyrrolidinium pentanoate]
Completion: 964.05

Prompt: Fill in mass density for record CCCCCC(=O)[O-].C[NH+]1CCCC1=O [N-methyl-2-oxopyrrolidinium hexanoate]
Completion: 953.51

----------
- protocolConditions: 303.15 K; 101.33 kPa; Liquid; Falling or rolling sphere viscometry
parameterMeasured: viscosity (mPa·s)
Enter your answer as a number in mPa·s; do not include the unit.

Prompt: Determine from records and report viscosity for CCC(=O)[O-].C[NH+]1CCCC1=O [N-methyl-2-oxopyrrolidinium propionate]
Completion: 2.518

Prompt: Please look at this molecule and report its viscosity: C[NH+]1CCCC1=O.O=C[O-] [N-methyl-2-oxopyrrolidinium formate]
Completion: 2.02

Prompt: Input CCCCCC(=O)[O-].C[NH+]1CCCC1=O [N-methyl-2-oxopyrrolidinium hexanoate] , output reported viscosity.
Completion: 3.998

Prompt: Give recorded viscosity. CCCC(=O)[O-].C[NH+]1CCCC1=O [N-methyl-2-oxopyrrolidinium butanoate]
Completion: 3.136

Prompt: Return reported viscosity. Input molecule: CC(=O)[O-].C[NH+]1CCCC1=O [N-methyl-2-oxopyrrolidinium acetate]
Completion: 2.364

Prompt: For the molecule CCCCC(=O)[O-].C[NH+]1CCCC1=O [N-methyl-2-oxopyrrolidinium pentanoate] , give its measured viscosity value.
Completion: 3.465

----------
Assignment: determine reported mass density for the given compounds.
- protocolConditions: 338.15 K; 101.33 kPa; Liquid; Vibrating tube method
// note: answer is a bare numeric in kg/m3

Prompt: Output measured mass density for this item: CCCC(=O)[O-].C[NH+]1CCCC1=O [N-methyl-2-oxopyrrolidinium butanoate]
Completion: 970.26

Prompt: State, in one line, measured mass density of CCCCC(=O)[O-].C[NH+]1CCCC1=O [N-methyl-2-oxopyrrolidinium pentanoate]
Completion: 955.36

Prompt: Using the record for CC(=O)[O-].C[NH+]1CCCC1=O [N-methyl-2-oxopyrrolidinium acetate] , state its measured mass density.
Completion: 1008.75

Prompt: Identify the reported mass density for the following entry. C[NH+]1CCCC1=O.O=C[O-] [N-methyl-2-oxopyrrolidinium formate]
Completion: 1033.66

Prompt: Recall and state the measured mass density for CCCCCC(=O)[O-].C[NH+]1CCCC1=O [N-methyl-2-oxopyrrolidinium hexanoate] .
Completion: 945.04

Prompt: Could you please provide reported mass density for CCC(=O)[O-].C[NH+]1CCCC1=O [N-methyl-2-oxopyrrolidinium propionate] ? Thanks!
Completion: 991.12

----------
- protocolConditions: 343.15 K; 101.33 kPa; Liquid; Falling or rolling sphere viscometry
Give measured viscosity for each item. Keep answers brief.
I only need the number, in mPa·s, no unit after it.

Prompt: Tell us which viscosity value is on record for CCC(=O)[O-].C[NH+]1CCCC1=O [N-methyl-2-oxopyrrolidinium propionate]
Completion: 1.32

Prompt: Find the measured viscosity of CCCC(=O)[O-].C[NH+]1CCCC1=O [N-methyl-2-oxopyrrolidinium butanoate] and report it.
Completion: 1.527

Prompt: # return recorded viscosity for input CCCCC(=O)[O-].C[NH+]1CCCC1=O [N-methyl-2-oxopyrrolidinium pentanoate]
Completion: 1.64

Prompt: Given the compound CCCCCC(=O)[O-].C[NH+]1CCCC1=O [N-methyl-2-oxopyrrolidinium hexanoate] , write its reported viscosity.
Completion: 1.808

Prompt: Give viscosity for C[NH+]1CCCC1=O.O=C[O-] [N-methyl-2-oxopyrrolidinium formate]
Completion: 1.159

Prompt: Quote viscosity reported for CC(=O)[O-].C[NH+]1CCCC1=O [N-methyl-2-oxopyrrolidinium acetate] please.
Completion: 1.264

----------
- protocolConditions: 328.15 K; 101.33 kPa; Liquid; Sing-around technique in a fixed-path interferometer
Provide the recorded speed of sound for the entries that follow.
Your answer should be a plain number; it is taken to be in m/s.

Prompt: Assign speed of sound to the following record: CCCCCC(=O)[O-].C[NH+]1CCCC1=O [N-methyl-2-oxopyrrolidinium hexanoate]
Completion: 1310.6

Prompt: Supply reported speed of sound belonging to this compound: C[NH+]1CCCC1=O.O=C[O-] [N-methyl-2-oxopyrrolidinium formate]
Completion: 1372.2

Prompt: Provide one value: measured speed of sound of CCC(=O)[O-].C[NH+]1CCCC1=O [N-methyl-2-oxopyrrolidinium propionate]
Completion: 1335.1

Prompt: Determine from records and report speed of sound for CCCC(=O)[O-].C[NH+]1CCCC1=O [N-methyl-2-oxopyrrolidinium butanoate]
Completion: 1311

Prompt: Fill in speed of sound for record CC(=O)[O-].C[NH+]1CCCC1=O [N-methyl-2-oxopyrrolidinium acetate]
Completion: 1364.7

Prompt: Answer with reported speed of sound of CCCCC(=O)[O-].C[NH+]1CCCC1=O [N-methyl-2-oxopyrrolidinium pentanoate]
Completion: 1305.7
